List of IC50 tested on human JAK3 (Homo sapiens (Human)).
Sequence (P52333 whole entry): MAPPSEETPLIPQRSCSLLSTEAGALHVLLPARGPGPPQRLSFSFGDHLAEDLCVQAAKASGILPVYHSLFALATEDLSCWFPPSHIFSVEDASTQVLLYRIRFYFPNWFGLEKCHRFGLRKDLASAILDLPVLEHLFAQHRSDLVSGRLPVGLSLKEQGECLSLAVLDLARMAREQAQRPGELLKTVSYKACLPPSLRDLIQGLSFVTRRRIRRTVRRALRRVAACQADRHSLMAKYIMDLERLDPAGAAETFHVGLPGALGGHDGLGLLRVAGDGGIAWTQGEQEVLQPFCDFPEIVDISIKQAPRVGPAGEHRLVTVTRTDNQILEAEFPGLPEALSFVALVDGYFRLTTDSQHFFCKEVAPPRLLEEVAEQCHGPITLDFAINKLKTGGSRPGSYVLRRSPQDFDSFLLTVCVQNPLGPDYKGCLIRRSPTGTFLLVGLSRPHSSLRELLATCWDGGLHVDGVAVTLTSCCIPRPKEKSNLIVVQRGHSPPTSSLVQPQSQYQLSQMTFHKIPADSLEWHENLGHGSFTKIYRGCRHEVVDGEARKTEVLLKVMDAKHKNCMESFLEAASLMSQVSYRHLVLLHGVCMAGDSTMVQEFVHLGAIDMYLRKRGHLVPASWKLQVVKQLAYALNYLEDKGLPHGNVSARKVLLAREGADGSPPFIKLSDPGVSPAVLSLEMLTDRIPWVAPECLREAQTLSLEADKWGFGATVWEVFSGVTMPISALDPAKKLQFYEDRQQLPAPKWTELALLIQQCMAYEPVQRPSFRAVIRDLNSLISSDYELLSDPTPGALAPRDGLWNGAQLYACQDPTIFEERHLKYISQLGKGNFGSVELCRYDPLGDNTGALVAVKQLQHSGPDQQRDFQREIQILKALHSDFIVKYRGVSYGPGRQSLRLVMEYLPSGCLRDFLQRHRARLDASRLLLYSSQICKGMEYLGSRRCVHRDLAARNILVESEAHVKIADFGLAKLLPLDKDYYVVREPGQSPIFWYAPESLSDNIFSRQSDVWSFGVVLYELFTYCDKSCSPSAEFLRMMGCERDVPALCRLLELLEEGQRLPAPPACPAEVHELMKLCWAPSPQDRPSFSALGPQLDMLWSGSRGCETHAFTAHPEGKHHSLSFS
parameter-measured: IC50

compound: CCC(=O)c1cnc(Nc2ccc(CN3CC(C#N)C3)cn2)cc1Nc1cccc(-c2ncn(C)n2)c1OC
parameter-measured: IC50
reported: 50 to 500 nM
--
compound: CCC(=O)c1cnc(Nc2ccn(CC3(CO)COC3)n2)cc1Nc1cccc(-c2ncn(C)n2)c1OC [Compound 21U]
parameter-measured: IC50
reported: 50 to 500 nM
--
compound: CCC(=O)c1cnc(Nc2ccc(-c3ccc[nH]c3=O)cn2)cc1Nc1cccc(-c2ncn(C)n2)c1OC [Compound 15W]
parameter-measured: IC50
reported: 50 to 500 nM
--
compound: CCC(=O)c1cnc(Nc2cc(CN(C)C)ncn2)cc1Nc1cccc(-c2ncn(C)n2)c1OC [Compound 17A]
parameter-measured: IC50
reported: ≥ 500 nM
--
compound: CCC(=O)c1cnc(Nc2ccn(C[C@H]3C[C@@H](O)C3)n2)cc1Nc1cccc(-c2ncn(C)n2)c1OC [Compound 21W]
parameter-measured: IC50
reported: ≥ 500 nM
--
compound: CCC(=O)c1cnc(Nc2cnc(OCCN3CC(F)(F)C3)cn2)cc1Nc1cccc(-c2ncn(C)n2)c1OC [Compound 18QQ]
parameter-measured: IC50
reported: ≥ 500 nM
--
compound: CCC(=O)c1cnc(Nc2ccc(S(C)(=O)=O)cn2)cc1Nc1ccc(CO)cc1OC [Compound 13X]
parameter-measured: IC50
reported: 50 to 500 nM
--
compound: CCC(=O)c1cnc(Nc2ccc(CCN(C)C)nn2)cc1Nc1cccc(-c2ncn(C)n2)c1OC [Compound 11D]
parameter-measured: IC50
reported: ≥ 500 nM
--
compound: CCC(=O)c1cnc(Nc2cnc(OCCCO)cn2)cc1Nc1cccc(-c2ncn(C)n2)c1OC [Compound 18Q]
parameter-measured: IC50
reported: ≥ 500 nM
--
compound: CCC(=O)c1cnc(Nc2cc(C)n(CCOC)n2)cc1Nc1cccc(-c2ncn(C)n2)c1OC [Compound 21Z]
parameter-measured: IC50
reported: 50 to 500 nM
--
compound: CCC(=O)c1cnc(Nc2cnc(OCCN3CC(F)C3)cn2)cc1Nc1cccc(-c2ncn(C)n2)c1OC [Compound 18PP]
parameter-measured: IC50
reported: ≥ 500 nM
--
compound: CCC(=O)c1cnc(Nc2ccc(CCN3CCCC3)nn2)cc1Nc1cccc(-c2ncn(C)n2)c1OC [Compound 11E]
parameter-measured: IC50
reported: ≥ 500 nM
--
compound: CCC(=O)c1cnc(Nc2ccc(-n3ccncc3=O)cn2)cc1Nc1cccc(-c2ncn(C)n2)c1OC [Compound 15V]
parameter-measured: IC50
reported: ≥ 500 nM
--
compound: CCC(=O)c1cnc(NC(=O)C2CC2c2cnn(C)c2)cc1Nc1cccc(-c2ncn(C)n2)c1OC (stereo not drawn) [Compound 22A]
parameter-measured: IC50
reported: ≥ 500 nM
--
compound: CCC(=O)c1cnc(Nc2ccc(S(C)(=N)=O)cn2)cc1Nc1cccc(-c2ncn(C)n2)c1OC (stereo not drawn) [Compound 14A]
parameter-measured: IC50
reported: ≥ 500 nM

----------
List of pIC50 tested on human JAK2 (Homo sapiens (Human)).
Sequence (O60674 whole entry): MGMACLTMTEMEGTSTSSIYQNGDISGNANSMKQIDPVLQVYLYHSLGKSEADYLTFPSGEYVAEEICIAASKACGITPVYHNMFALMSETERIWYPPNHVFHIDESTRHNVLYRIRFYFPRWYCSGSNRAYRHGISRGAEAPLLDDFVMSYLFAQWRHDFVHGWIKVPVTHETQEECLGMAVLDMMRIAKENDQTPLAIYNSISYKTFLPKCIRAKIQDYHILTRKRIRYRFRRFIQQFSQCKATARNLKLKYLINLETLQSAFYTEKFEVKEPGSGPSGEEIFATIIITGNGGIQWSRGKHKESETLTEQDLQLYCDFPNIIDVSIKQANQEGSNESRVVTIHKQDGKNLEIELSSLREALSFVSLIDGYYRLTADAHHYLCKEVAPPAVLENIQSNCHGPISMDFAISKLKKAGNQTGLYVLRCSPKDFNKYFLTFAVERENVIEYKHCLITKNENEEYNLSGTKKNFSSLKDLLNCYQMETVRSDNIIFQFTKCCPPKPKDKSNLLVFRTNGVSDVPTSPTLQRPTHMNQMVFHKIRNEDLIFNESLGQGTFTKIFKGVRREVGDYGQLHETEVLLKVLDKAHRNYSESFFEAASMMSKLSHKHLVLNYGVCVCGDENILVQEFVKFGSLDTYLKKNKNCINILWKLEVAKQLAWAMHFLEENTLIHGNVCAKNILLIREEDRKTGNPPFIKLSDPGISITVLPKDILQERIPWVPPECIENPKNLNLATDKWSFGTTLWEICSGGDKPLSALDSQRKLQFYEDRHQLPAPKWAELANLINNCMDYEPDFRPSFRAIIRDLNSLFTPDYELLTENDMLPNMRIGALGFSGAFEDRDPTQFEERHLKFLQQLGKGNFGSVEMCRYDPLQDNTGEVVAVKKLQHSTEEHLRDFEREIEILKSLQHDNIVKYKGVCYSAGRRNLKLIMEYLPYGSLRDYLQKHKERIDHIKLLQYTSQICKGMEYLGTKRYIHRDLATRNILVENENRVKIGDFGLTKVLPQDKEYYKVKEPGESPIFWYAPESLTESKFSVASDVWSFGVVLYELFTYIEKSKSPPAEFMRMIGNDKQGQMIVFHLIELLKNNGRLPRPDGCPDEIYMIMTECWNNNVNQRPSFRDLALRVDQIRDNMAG
pIC50: −log10 of the molar value.

compound: CCC(=O)c1cnc(Nc2ccn(C[C@H]3C[C@@H](O)C3)n2)cc1Nc1cccc(-c2ncn(C)n2)c1OC [Compound 21W]
assayed-target: human JAK2 (Homo sapiens (Human))
pIC50: ≤ 6.30

compound: CCC(=O)c1cnc(Nc2cc(CCN3CCCC3)ncn2)cc1Nc1cccc(-c2ncn(C)n2)c1OC [Compound 11G]
assayed-target: human JAK2 (Homo sapiens (Human))
pIC50: ≤ 6.30

compound: CCC(=O)c1cnc(Nc2cc(CN3CCCC3)ccn2)cc1Nc1cccc(-c2ncn(C)n2)c1OC [Compound 9IIII]
assayed-target: human JAK2 (Homo sapiens (Human))
pIC50: 6.30 to 7.30

compound: CCC(=O)c1cnc(Nc2ccc(S(C)(=O)=O)cn2)cc1Nc1cccc(-c2ncn(C)n2)c1OC [Compound 12A]
assayed-target: human JAK2 (Homo sapiens (Human))
pIC50: ≤ 6.30

----------
- assayed-target: TYK2 JH2 domain (Homo sapiens (Human), UniProt P29597)
- Sequence (P29597 589-875): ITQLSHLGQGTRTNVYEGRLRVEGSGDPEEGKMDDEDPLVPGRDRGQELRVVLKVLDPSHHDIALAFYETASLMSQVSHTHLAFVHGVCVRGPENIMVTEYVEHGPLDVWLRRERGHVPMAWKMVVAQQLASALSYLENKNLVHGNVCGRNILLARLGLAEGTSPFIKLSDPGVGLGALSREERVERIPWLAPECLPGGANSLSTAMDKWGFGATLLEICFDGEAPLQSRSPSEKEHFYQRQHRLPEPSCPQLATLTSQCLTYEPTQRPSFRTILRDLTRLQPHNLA
- assay: TYK2 JH2 NanoBRET assay
- Type: binding
- run-conditions: Table 20, read-out: TYK2 IC50
pIC50: −log10 of the molar value.
Measured pIC50, listed per entry for reference.

molecule: CCC(=O)c1cnc(Nc2ccc(O[C@H]3CCN(C)C3)nn2)cc1Nc1cccc(-c2ncn(C)n2)c1OC [Compound 18GG]
pIC50: 7.30 to 8.30

molecule: CCC(=O)c1cnc(NC(=O)CCc2cnn(C)c2)cc1Nc1cccc(-c2ncn(C)n2)c1OC [Compound 23F]
pIC50: 6.30 to 7.30

molecule: CCC(=O)c1cnc(Nc2ccc(CN(C)C)c(C(F)(F)F)n2)cc1Nc1cccc(-c2ncn(C)n2)c1OC
pIC50: 7.30 to 8.30

molecule: CCC(=O)c1cnc(Nc2cc(C(N)=O)ncn2)cc1Nc1cccc(-c2ncn(C)n2)c1OC
pIC50: > 8.30

molecule: CCC(=O)c1cnc(Nc2cccc(CN3CCCCC3)n2)cc1Nc1cccc(-c2ncn(C)n2)c1OC
pIC50: 7.30 to 8.30

molecule: COc1c(Nc2cc(Nc3ccc(OC[C@H](O)CO)cn3)ncc2C(=O)C2CC2)cccc1-c1ncn(C)n1 [Compound 18J]
pIC50: 7.30 to 8.30

molecule: CCC(=O)c1cnc(Nc2ncc(S(C)(=O)=O)cc2F)cc1Nc1cccc(-c2ncn(C)n2)c1OC [Compound 13Z]
pIC50: 6.30 to 7.30

molecule: CCC(=O)c1cnc(NC(=O)[C@@H]2C[C@@H]2NC(C)=O)cc1Nc1cccc(-c2ncn(C)n2)c1OC [Compound 22K]
pIC50: ≤ 6.30

molecule: CCC(=O)c1cnc(Nc2ccc(-c3cnn(C)c3)cn2)cc1Nc1cccc(-c2ncn(C)n2)c1OC [Compound 15D]
pIC50: > 8.30

molecule: CCC(=O)c1cnc(Nc2ccc(CN3CC4(COC4)C3)cn2)cc1Nc1cccc(-c2ncn(C)n2)c1OC
pIC50: > 8.30

molecule: CCC(=O)c1cnc(Nc2cc(C)n(CCOC)n2)cc1Nc1cccc(-c2ncn(C)n2)c1OC [Compound 21Z]
pIC50: 7.30 to 8.30

molecule: CCC(=O)c1cnc(Nc2ccnc(O[C@@H]3CCN(C)C3)n2)cc1Nc1cccc(-c2ncn(C)n2)c1OC [Compound 18LL]
pIC50: 7.30 to 8.30

molecule: CCC(=O)c1cnc(Nc2ccc(S(=O)(=O)CC)cn2)cc1Nc1cccc(-c2ncn(C)n2)c1OC [Compound 13G]
pIC50: > 8.30

molecule: CCC(=O)c1cnc(Nc2ccc(-n3cnccc3=O)cn2)cc1Nc1cccc(-c2ncn(C)n2)c1OC [Compound 15Y]
pIC50: > 8.30

molecule: CCC(=O)c1cnc(Nc2cc(C(=O)NC)ccn2)cc1Nc1cccc(-c2ncn(C)n2)c1OC
pIC50: > 8.30

molecule: CCC(=O)c1cnc(Nc2ccc(O[C@@H]3CCN(C)C3)cn2)cc1Nc1cc(F)cc(-c2ncn(C)n2)c1OC
pIC50: > 8.30

molecule: CCC(=O)c1cnc(Nc2ccc(C(C)N)cn2)cc1Nc1cccc(-c2ncn(C)n2)c1OC (centres unmarked)
pIC50: > 8.30

molecule: CCC(=O)c1cnc(Nc2cnc(O[C@@H]3CCN(C)C3)cn2)cc1Nc1cccc(-c2ncn(C)n2)c1OC [Compound 18UU]
pIC50: 7.30 to 8.30

molecule: CCC(=O)c1cnc(Nc2ccc(S(C)(=O)=O)cn2)cc1Nc1cccc(-c2ncn(C)n2)c1OC [Compound 12A]
pIC50: > 8.30

molecule: CCC(=O)c1cnc(NC(=O)CC2CC2)cc1Nc1cccc(-c2ncn(C)n2)c1OC [Compound 23B]
pIC50: 7.30 to 8.30

molecule: CCC(=O)c1cnc(Nc2ccc(OC3CCN(C)CC3)cn2)cc1Nc1cccc(-c2ncn(C)n2)c1OC [Compound 18Y]
pIC50: > 8.30

molecule: CCC(=O)c1cnc(Nc2cnc(O[C@@H]3CCN(C)C[C@@H]3F)cn2)cc1Nc1cccc(-c2ncn(C)n2)c1OC
pIC50: 7.30 to 8.30

molecule: CCC(=O)c1cnc(Nc2cnc(O[C@H]3CN(C)CC3(F)F)cn2)cc1Nc1cccc(-c2ncn(C)n2)c1OC
pIC50: 7.30 to 8.30

----------
Measured pIC50, listed per entry for reference.
- assayed-target: TYK2 JH2 domain (Homo sapiens (Human), UniProt P29597)
- assay: TYK2 JH2 NanoBRET assay
- Format: binding
- run-conditions: Table 20, read-out: TYK2 IC50
pIC50: −log10 of the molar value.

compound: CCC(=O)c1cnc(Nc2ccc(CS(C)(=N)=O)cn2)cc1Nc1cccc(-c2ncn(C)n2)c1OC (centres unmarked) [Compound 13F]
pIC50: 7.30 to 8.30
--
compound: CCC(=O)c1cnc(Nc2ccc(CN3CCN(C)CC3)nn2)cc1Nc1cccc(-c2ncn(C)n2)c1OC [Compound 9PPP]
pIC50: 7.30 to 8.30
--
compound: CCC(=O)c1cnc(Nc2ncc(-n3ccccc3=O)cc2F)cc1Nc1cccc(-c2ncn(C)n2)c1OC [Compound 15AA]
pIC50: 6.30 to 7.30
--
compound: CCC(=O)c1cnc(Nc2ccc(-n3cccn3)cn2)cc1Nc1cccc(-c2ncn(C)n2)c1OC [Compound 15H]
pIC50: > 8.30
--
compound: CCC(=O)c1cnc(Nc2ccc(O[C@@H]3CCN(C)C3)c(C)n2)cc1Nc1cccc(-c2ncn(C)n2)c1OC [Compound 18YYY]
pIC50: > 8.30
--
compound: CCC(=O)c1cnc(Nc2ccc([C@H](C)N(C)C)cn2)cc1Nc1cccc(-c2ncn(C)n2)c1OC [Compound 9K]
pIC50: > 8.30
--
compound: CCC(=O)c1cnc(NC(=O)C2CC2)cc1Nc1cc(CO)cc(-c2ncn(C)n2)c1OC [Compound 25D]
pIC50: 6.30 to 7.30
--
compound: CCC(=O)c1cnc(Nc2cc(-c3cn(C)cn3)ccn2)cc1Nc1cccc(-c2ncn(C)n2)c1OC [Compound 15E]
pIC50: > 8.30
--
compound: CCC(=O)c1cnc(Nc2ccc(OC3COC3)cn2)cc1Nc1cccc(-c2ncn(C)n2)c1OC [Compound 18Z]
pIC50: > 8.30
--
compound: CCC(=O)c1cnc(Nc2cc(C(F)(F)F)c(CN(C)C)cn2)cc1Nc1cccc(-c2ncn(C)n2)c1OC [Compound 9SSSS]
pIC50: 7.30 to 8.30
--
compound: CCC(=O)c1cnc(NC(=O)CC2(O)CC2)cc1Nc1cccc(-c2ncn(C)n2)c1OC [Compound 23C]
pIC50: 6.30 to 7.30
--
compound: CCC(=O)c1cnc(Nc2ccc([C@@H](C)N3CC4(COC4)C3)cn2)cc1Nc1cccc(-c2ncn(C)n2)c1OC [Compound 9BBB]
pIC50: > 8.30
--
compound: CCC(=O)c1cnc(NC(=O)CC2CN(C)C2)cc1Nc1cccc(-c2ncn(C)n2)c1OC [Compound 23G]
pIC50: ≤ 6.30
--
compound: CCC(=O)c1cnc(Nc2ccc(C(N(C)C)C(F)(F)F)cn2)cc1Nc1cccc(-c2ncn(C)n2)c1OC (centres unmarked) [Compound 9V]
pIC50: > 8.30
--
compound: CCC(=O)c1cnc(Nc2ccc(S(C)(=O)=O)cn2)cc1Nc1cccc(C(C)(C)O)c1OC [Compound 13Y]
pIC50: 6.30 to 7.30
--
compound: CCC(=O)c1cnc(Nc2cc(CN3CCCC3)n(C)n2)cc1Nc1cccc(-c2ncn(C)n2)c1OC [Compound 21G]
pIC50: > 8.30
--
compound: CCC(=O)c1cnc(Nc2nccc(CN(C)C)c2F)cc1Nc1cccc(-c2ncn(C)n2)c1OC [Compound 9TTTT]
pIC50: 7.30 to 8.30
--
compound: CCC(=O)c1cnc(Nc2cnc(C(N(C)C)C(F)(F)F)cn2)cc1Nc1cccc(-c2ncn(C)n2)c1OC (centres unmarked) [Compound 9VVV]
pIC50: 7.30 to 8.30
--
compound: CCC(=O)c1cnc(Nc2ccc(S(C)(=N)=O)cn2)cc1Nc1cccc(-c2ncn(C)n2)c1OC (centres unmarked) [Compound 14A]
pIC50: > 8.30
--
compound: CCC(=O)c1cnc(Nc2ccc(CN(C)C3CC(F)(F)C3)cn2)cc1Nc1cccc(-c2ncn(C)n2)c1OC [Compound 9EEE]
pIC50: > 8.30
--
compound: CCC(=O)c1cnc(Nc2cnc(O[C@@H]3CCNC3)cn2)cc1Nc1cccc(-c2ncn(C)n2)c1OC [Compound 18SS]
pIC50: 7.30 to 8.30
--
compound: CCC(=O)c1cnc(Nc2ccn([C@H]3C[C@H](OC)C3)n2)cc1Nc1cccc(-c2ncn(C)n2)c1OC [Compound 21L]
pIC50: 7.30 to 8.30
--
compound: CCC(=O)c1cnc(Nc2ccc(OC[C@@H](O)CO)cn2)cc1Nc1cccc(-c2ncn(C)n2)c1OC [Compound 18F]
pIC50: 7.30 to 8.30
--
compound: CCC(=O)c1cnc(Nc2ccc(-c3ncn(C)n3)cn2)cc1Nc1cccc(-c2ncn(C)n2)c1OC [Compound 15C]
pIC50: > 8.30
--
compound: CCC(=O)c1cnc(Nc2ccc([C@H](C)N3CC(O)C3)cn2)cc1Nc1cccc(-c2ncn(C)n2)c1OC [Compound 9GG]
pIC50: 7.30 to 8.30
--
compound: CCC(=O)c1cnc(Nc2cc(CN3CCCC3)sn2)cc1Nc1cccc(-c2ncn(C)n2)c1OC [Compound 21I]
pIC50: > 8.30
--
compound: CCC(=O)c1cnc(Nc2ccc([C@H](C)N3CC4(COC4)C3)cn2)cc1Nc1cccc(-c2ncn(C)n2)c1OC [Compound 9AAA]
pIC50: > 8.30
--
compound: CCC(=O)c1cnc(Nc2ccc(OCC(C)(C)O)cn2)cc1Nc1cccc(-c2ncn(C)n2)c1OC [Compound 18E]
pIC50: > 8.30
--
compound: CCC(=O)c1cnc(Nc2ccn(CCC#N)n2)cc1Nc1cccc(-c2ncn(C)n2)c1OC [Compound 21M]
pIC50: 7.30 to 8.30
